# test-method-notes: Toxicity (LD50)
# condition-info: in vivo, sc
observation-type: LD50 (mg/kg)
Report the figure in mg/kg without appending any unit label.

Form field: reported LD50 of CN(C)CCC=C1c2ccccc2CCc2ccccc21 [Amitryptyline, reference compound]
100

###

# test-method-notes: Toxicity (LD50)
# condition-info: in vivo, po; i.g.
observation-type: LD50 (mg/kg)
Report the figure in mg/kg without appending any unit label.

CN(C)CCC=C1c2ccccc2CCc2ccccc21 [Amitryptyline, reference compound]    200
CNCCCc1cc(=O)c2ccccc2c2ccccc12 [Example 4C]    800
CCN(CC)CCOc1cc(=O)c2ccccc2c2ccccc12 [Example 1]    300
CN(C)CCCc1cc(=O)c2ccccc2c2ccccc12 [Example 4A]    200

Form field: reported LD50 of CCN(CC)CCCc1cc(=O)c2ccccc2c2ccccc12 [Example 4B]
200

###

# test-method-notes: (E) Anticholinergic action measured as mydriasis
# Format: in vivo, mice
# condition-info: mouse, in vivo, po
# Description: (E) Anticholinergic action measured as mydriasis (mice).
observation-type: ED50
Field note: include the unit after the figure.

Form field: reported ED50 of CN(C)CCC=C1c2ccccc2CCc2ccccc21 [Amitryptyline, reference compound]
23 mg/kg

###

# Tested on: Reserpine-induced hypothermia
# test-method-notes: (A) Reserpine-induced hypothermia in mice (antidepressive action)
# Format: in vivo
# condition-info: Mus musculus, po, i.g., read-out: Minimal dosage which leads to normalization of body temperature (A)
# Description: The minimal dosage is given which leads to normalization of body temperature measured rectally.
Consider the following compounds and their measured minimal effective dose readings.
Report the figure in mg/kg without appending any unit label.

CCN(CC)CCOc1cc(=O)c2ccccc2c2ccccc12 [Example 1]    20
CNCCCc1cc(=O)c2ccccc2c2ccccc12 [Example 4C]    75
CCN(CC)CCCc1cc(=O)c2ccccc2c2ccccc12 [Example 4B]    30

Continue with the compound presented below.
Form field: reported minimal effective dose of CN(C)CCCc1cc(=O)c2ccccc2c2ccccc12 [Example 4A]
20
